system: ATP; experiment: switch fluorescence ratio, 500 uM ATP over buffer (Cy3 cluster intensity, sum of 5 cycles each) (fold (ratio)); higher = stronger signal-on switching upon ATP binding; sequences stand for … in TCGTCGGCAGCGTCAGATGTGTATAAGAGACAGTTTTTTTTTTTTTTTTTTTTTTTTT…TC; details: aptamer strand: ATP DNA aptamer (quencher-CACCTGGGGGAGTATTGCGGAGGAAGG + anchor), 100 nM annealed; ATP concentration: 500 uM;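 note: ATP exposure 15 min at 22 °C before imaging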
Recorded switch fluorescence ratio, one value per entry.
measured.parameter: switch fluorescence ratio

> print(dat)
    macromolecule.sequence  target.desc  assay.result
 1              GATGTCGGTC          ATP         0.982
 2              TGGAGTCCGG          ATP         0.987
 3              AAAAACGTCT          ATP           1.1
 4              AAGGGGGTAC          ATP          1.38
 5              GTCGGAGGGG          ATP         0.982
 6              AAGTACGTTG          ATP          1.12
 7              AGGGGGGTCG          ATP         0.992
 8              TTGCCTTTTG          ATP          1.08
 9              ACGATTTTAG          ATP          1.04
10              GAGGAGGATG          ATP         0.987

###

Recorded switch fluorescence ratio, one value per entry.
system: ATP; test: switch fluorescence ratio, 500 uM ATP over buffer (Cy3 cluster intensity, sum of 5 cycles each) (fold (ratio)); higher = stronger signal-on switching upon ATP binding; sequences stand for … in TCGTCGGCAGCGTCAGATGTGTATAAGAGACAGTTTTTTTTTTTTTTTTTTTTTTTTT…TC; details: aptamer strand: ATP DNA aptamer (quencher-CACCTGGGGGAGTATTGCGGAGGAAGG + anchor), 100 nM annealed; ATP concentration: 500 uM;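 note: ATP exposure 15 min at 22 °C before imaging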
measured.parameter: switch fluorescence ratio

> print(dat)
    macromolecule.sequence  assay.result
 1              GGTAGATTCG         0.994
 2              ATTTTATACA         0.996
 3              ATTTTGTTTC         0.987
 4              TTATCGCTTG         0.997
 5              TTGTGGAAGC          1.01
 6              AGCGCCAACA          1.02
 7              AGGCTTGTGT          0.99
 8              TTGAGCATTT         0.982
 9              ATTTCTAGAT          1.02
10              CTTTTTTGCC          1.02
11              TGTGATTTTG         0.998
12              AGGGAATCGG         0.976
13              TTCTAACTCA          1.02
14              TGGGGCGTTG          1.01
15              ATTCAGTTAT         0.997
16              TTAGAGCTTC          1.01
17              AAGGATAGGA             1
18              TTCGTTATAG          1.01
19              GTTGTTTAGT         0.994
20              AGATTTATGT          1.01
21              ATTGGTAGGG         0.986
22              GGGGGGGAGG         0.993
23              CATTTAGGCT             1
24              TCAACGGGTA          1.01
25              TTTCTTGTTT         0.985
26              CCCTAGGGTC          1.01
27              TAGAATGGAA          1.02
28              GGCTGGACGG          1.01
29              GATGCGTACG             1
30              CTTATCGGGG             1
31              GGTGCGGCTG          1.01
32              CTAATATTAG             1
33              TGGCGGGGGC          1.02
34              GGAGTTTCGG             1
35              GTTGTCTAAT         0.999
36              TGATGGAGGG         0.997
37              GGATGCTAGG          1.01
38              GAGTAGGGGT          1.01
39              TTCCTTGGGA         0.984
40              CGTTGTTCGT             1
41              TTGAATGCCA          0.99
42              AATTAGGGGA             1
43              TTTTTATTGT         0.997
